Source listed as patent US9371374.

- SYSTEM: biotinylated HCV core peptide 151-171 (Peptide 3) (HCV-1)
- ASSAY DETAILS: EIA, captured mAb
Measured Reactivity (OD492) by item

# BINDER, UNIT SPEC, Reactivity (OD492)
rows = [
    ("HCV 208B-395 (antibody, V domains shown) VH: QVQLQQSGAGLAKPGASVKMSCKASGYTFTANKMHWTKQRPGQGLEWIGYIDPSSGYTQYNHKIQDKATLTADTSSSTAYMQLSSLTFEDSAVYYCTNFAYWGQGTLVTVSA VL: DIVLTQSPATLSVTPGDRVSLSCRASQRIYNYLHWYQQKSHESPRLLIKYASQSISGIPSRFSGSGSGTDFILTINSVETEDFGMYFCQQSNSWPLTFGAGTKLELRR", "OD", 3.69),
    ("HCV 208A-741 (antibody, V domains shown) VH: QLQQSGPVLVKPGASVMISCKTSGYTFTENAMHWVKQSHGKSLEWIGGVNPNNGDTIFNQKFKGKATLTVDKSSSTAFMELRSLTSEESTVYYCVRRELDFFDYWGQGTSVTVSS VL: DIVLTQSPASLAVSLGQRTTISCGASQSVSTSRFSYMHWYQQKPGQPPKLLIKYASNLESGVPARFSGSGSGTDFTLNIHPVAEEDTAAYYCQHSWEFPFTFGSGTKLEIKR", "OD", 0.06),
    ("HCV 208B-826 (antibody, V domains shown) VH: DVQLVESGGGLVQAGGSRKLSCAASGFPFSSFGMHWVRQAPEKGLEWVASISSRTSKIYYADNLKGRFTISRDNPKNTLFLQMTSLGSEDTAMYYCVRSVFGNSYWFFDVWGAGTTVTVSS VL: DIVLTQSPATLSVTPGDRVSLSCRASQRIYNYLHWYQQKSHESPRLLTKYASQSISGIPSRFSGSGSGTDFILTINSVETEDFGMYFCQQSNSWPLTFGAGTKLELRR", "OD", 0.08),
]
